Please respond with reported growth inhibition for every item in the list.
assay.protocol: NCI Yeast Anticancer Drug Screen. Data for the mec2-1 strain (AID 157)
conditions.used: S. cerevisiae mec2-1 strain, at 5.0 µM (retest, dose inferred, filed as 0.5), active compounds read high
Experimental: Growth inhibition of yeast strains with defined genetic alterations is measured as a screen for potential anti-cancer activity. Selected strains with alterations in DNA damage repair or cell cycle control were exposed to compounds and growth inhibition was measured relative to vehicle treated controls. The strain used in this assay is mec2-1
The panel holds about 79,000 compounds, 15% with a hit somewhere; the sample as a whole holds those more often.
Answers are plain numbers, in %.

Examples with their reported growth inhibition follow.
O=C(C#CC(=O)[O][Sn]([c]1ccccc1)([c]1ccccc1)[c]1ccccc1)[O][Sn]([c]1ccccc1)([c]1ccccc1)[c]1ccccc1: 100
Cc1ccc2[nH]c3c(c2c1)[n+]([O-])c1ccccc1[n+]3[O-]: 3
O=C1OC(c2ccccc2)(c2ccc(-c3ccc(O)cc3)cc2)c2ccccc21 (stereo not drawn): 3
CC(=O)OC12CCC3C4CC=C5CC(O)CCC5(C)C4C(=O)C3C1(C)N1CC(C)CC(O)C1C2C (stereo not drawn): 10
O=[N+]([O-])c1cc(Cl)ccc1S(=O)(=O)c1ccccc1: -31
O=C(CN1CCCCC1)CC(O)(C(F)(F)F)C(F)(F)F: 20
Cc1cc2nc3[nH]c4c(Cl)cc(Cl)cc4c3nc2cc1C: 14
CCCCN(CCCC)CN1C(=O)/C(=C/c2ccc(NC(C)=O)cc2)NC1=S: -7
O=C(O)CCn1c2ccccc2c2ccccc21: -13
CN1C(=O)c2cccc3cc([N+](=O)[O-])cc(c23)C1=O: -16

For every item in the list below, what is its measured growth inhibition?
1. CC(=O)N1c2ccccc2Sc2c1ccc1ccccc21
2. O=C(/C=C/c1cc(O)c(O)cc1O)OCCc1ccccc1
3. Clc1cc(Cl)c(OCCOCCI)c(Cl)c1
4. COc1ccc(/C=N/NS(=O)(=O)c2ccccc2)cc1
5. O=C(CC(c1ccccc1)N1CCCCC1)OC1c2ccccc2-c2ccccc21 (stereo not drawn)
6. O=c1c2c(F)c(F)c(F)c(F)c2sc2nccn12
7. c1ccc2c(c1)oc1cc3c(cc12)CCCN3

[5, 16, 2, -2, 17, 40, 19]

List reported growth inhibition for each of these molecules:
1. O=c1[nH]c2c([N+](=O)[O-])cc(Cl)cc2nc1/C=C(\O)c1cccc2ccccc12
2. CCN(CC)CCNc1cc(C)nc2c1ccc1c2ccc2c(NCCN(CC)CC)cc(C)nc21
3. O=C1OC(OC/C(Br)=C(/Br)COC2OC(=O)C(Cl)=C2Cl)C(Cl)=C1Cl (stereo not drawn)
4. O=[N+]([O-])/C(Cl)=C(\Sc1ccccc1)C(Cl)=C(Cl)Cl
5. Cc1cc(C(=O)O)c(C)c2c1sc1ccccc12
6. Clc1ccc(CNc2ccc(Br)cc2)cc1

[10, 18, 64, 100, 3, 3]

###

assay.protocol: NCI Yeast Anticancer Drug Screen. Data for the rad50 strain (AID 155);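 also: 0% = growth of vehicle-only cultures of the same strain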
conditions.used: S. cerevisiae rad50 strain growth inhibition; at 5.0 µM (retest, dose inferred, filed as 0.5)
Procedure: Growth inhibition of yeast strains with defined genetic alterations is measured as a screen for potential anti-cancer activity. Selected strains with alterations in DNA damage repair or cell cycle control were exposed to compounds and growth inhibition was measured relative to vehicle treated controls. The strain used in this assay is rad50
The panel holds about 79,000 compounds, 15% with a hit somewhere; the sample as a whole holds those more often. Activity calls are given as the source filed them. No stated cut-off is given here; in the data, active means growth inhibition above about 70%; inactive means the rest.
I would appreciate it if you answered using one of these outcomes: active, inactive

Cc1ccc(C)c(N2C(=O)C(=O)c3c(C)ccc(C)c32)c1: inactive
CC(=O)Oc1c(C2CCCCC2)cc([N+](=O)[O-])cc1[N+](=O)[O-]: active
CCOC(=O)N1CCN(CCCCCCOc2c(Cl)cc(Cl)cc2Cl)CC1: inactive
O=C1Nc2ccccc2SC1c1ccccc1 (stereo not given): inactive
CC(C)c1ccc(N2C(=O)C=CC2=O)cc1: active

Here's the next entry for you.
Look up the recorded call for C/C(=N/NC(=S)Nc1ccc(C)cc1)c1ccccn1 in this test. inactive

###

assay.protocol: NCI Yeast Anticancer Drug Screen. Data for the sgs1 mgt1 strain (AID 161);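 also: 0% = growth of cultures given vehicle only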
conditions.used: S. cerevisiae sgs1 mgt1 strain, at 5.0 µM (retest, dose inferred, filed as 0.5), active compounds read high
About 79,000 compounds went through this panel and 15% of them were active in at least one assay; those are over-represented in the sample as a whole.
Assign growth inhibition to each entry below.
Numbers only, in %.

Guide cases for growth inhibition, answers given:
COc1ccc2c(c1)CN1C(CCC3c4ccccc4NC31)C2 (stereo unspecified): -5
COC(=O)CCCC(=O)NC1=C(Nc2ccccc2)C(=O)c2ccccc2C1=O: 22
OCCN1COc2cc3c(cc2C1)OCN(CCO)C3: -1

Quick one: give me growth inhibition for each item below, same order please.
1. S=C(Nc1ccc2cn[nH]c2c1)Nc1ccc2cn[nH]c2c1
2. Nc1ccc2ccc3cccc4ccc1c2c34
3. O=C(O)Cc1ccc2c(c1O)C(=O)c1ccccc1C2=O

1. -5
2. 1
3. 1

###

assay.protocol: NCI Yeast Anticancer Drug Screen. Data for the cln2 rad14 strain (AID 165);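 also: 0% = growth equal to vehicle treated cultures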
conditions.used: S. cerevisiae cln2 rad14 strain, at 50.0 µM
This is part of a sample that, as a whole, favours compounds with a hit. Of some 79,000 tested, about 15% had one in any assay. Calls of active or inactive are those of the source. No stated cut-off is given here; in the data, active means growth inhibition above about 70%; inactive means the rest.
Lab note: assign the record to one of Yes = active, No = inactive

Check out these entries, answers already filled in.
CCCCCCCCCCCCCC1OC(=O)C(C)=C1C(=O)O (stereo unspecified): No
O=C(NC1CCN(Cc2ccccc2)CC1)c1ccccc1I: Yes
CCCCCCCCCCCC(=O)OCCOC(=O)CCCCCCCCCCC: No
COc1ccc(/C=C/C(C(=O)O)C(=O)O)cc1: No
CN(Cc1cnc2nc(N)nc(N)c2n1)c1ccc(C(=O)NC(CCC(=O)O)C(=O)O)cc1C(F)(F)F (stereo unspecified): No

For CCN(CC)c1ccc2nc3ccc(N(CC)CC)cc3[n+](-c3ccccc3)c2c1 , which call appears in the assay record? Yes

Which outcome did this test record for the molecule Cc1cc(SCC(=O)c2ccccc2)cc(C)[o+]1 ? No

How did this test come out for CC1(C)OC(=O)C(=NNc2ccccc2[N+](=O)[O-])C(=O)O1 ? No

Give the logged outcome of this assay for the following molecule: CCCCCCOC(=O)C(N)Cc1ccc(OC)cc1 (stereo unspecified) No

Test call for this molecule, please: O=C1OC(OCC#CCOC2OC(=O)C(Cl)=C2Cl)C(Cl)=C1Cl (stereo unspecified) Yes

Outcome? Cc1ccc(/C=C/C(=O)/C=C/c2ccc(C)o2)o1 No

###

assay.protocol: NCI Yeast Anticancer Drug Screen. Data for the bub3 strain (AID 167)
conditions.used: S. cerevisiae bub3 mutant strain, at 50.0 µM (retest, dose inferred, filed as 5.0), active compounds read high
The panel holds about 79,000 compounds, 15% with a hit somewhere; the sample as a whole holds those more often. The source made the active and inactive calls. Cut-off read from the data, not from the text of the source: active = growth inhibition above about 70%; inactive = the rest.
For each record, write down the corresponding growth inhibition.

Known results for molecules:
S=c1[nH]nc(SCc2ccc(Cl)c(Cl)c2)c2[nH]cnc12: -8% (inactive)
CCOC(=O)C1(C#N)C(c2ccccc2)C1(C#N)C#N (stereo not drawn): 92% (active)
CCc1nc(N)nc(N)c1-c1ccc(N(C)Cc2ccccc2)c([N+](=O)[O-])c1: 34% (inactive)
CC[C@@H]1O[C@@H]([C@@H]2CC[C@](O)([C@]3(C)CC[C@@H]([C@@H](C)[C@@]4(O)CC[C@H](C)[C@@H](C[C@@]5(O)O[C@@H]([C@@H](C)[C@H](O)C[C@H]6CC[C@H](C)[C@@H]([C@@H](C)C(=O)O)O6)CC[C@@H]5C)O4)O3)O2)CC[C@@]1(C)O: 93% (active)

Each of the following entries comes with a recorded value; kindly state growth inhibition for each.
1. CC(=O)OCC1OC(n2ncc3c(Sc4c([N+](=O)[O-])ncn4C)ncnc32)C(OC(C)=O)C1OC(C)=O (stereo not drawn)
2. O/N=C1/C(=C/c2ccc(Cl)c(Cl)c2)CCCC1C(NO)c1ccc(Cl)c(Cl)c1 (stereo not drawn)
3. O=CC1(c2ccc(Cl)cc2)NC(=O)NC1=O (stereo not drawn)

99% (active)
96% (active)
-1% (inactive)

Recall and state the measured growth inhibition for COc1ccc(Oc2c(OC)cc(NCCCCCNC(C)C)c3ncccc23)cc1 . 69% (inactive)

###

I'd appreciate it if you could supply growth inhibition values for the items below.
assay.protocol: NCI Yeast Anticancer Drug Screen. Data for the bub3 strain (AID 167)
conditions.used: S. cerevisiae bub3 mutant strain, at 50.0 µM, active compounds read high
About 79,000 compounds went through this panel and 15% of them were active in at least one assay; those are over-represented in the sample as a whole.
Numbers only, in %.

# annotated cases, reported growth inhibition shown
CCOC(=O)C(Br)C(Br)c1cccc(Cl)c1 (configuration not stated): 99.8
CSc1ccc(C(=O)C(=O)c2ccc(SC)s2)s1: 48.7
O=C(Nc1ccc(C(=O)Nc2ccc3c(O)cc(S(=O)(=O)O)cc3c2)cc1)c1ccccc1: 1.15
CN(C)c1ccccc1CCCCCCc1ccccc1N(C)C: 80.5
N=C1C=CC(=C(c2ccc(N)cc2)c2ccc(N)cc2)C=C1: 98.3
CC(C)N(C(=O)C12C3C4C1C1C2C3C41I)C(C)C (configuration not stated): 61
Cc1ccc(-c2oc(C=Nc3ccccc3)c([N+](=O)[O-])c2-c2ccc(C)cc2)cc1: 41.7
O=C1Nc2c(ccc(Cl)c2I)C1=O: 91.6
OC(CC(O)(C(F)(F)Cl)C(F)(F)Cl)c1ccccc1 (configuration not stated): 88.6
CSS(=O)(=O)c1ccc(C)cc1: 99.5

The following compounds each have a reported value; give each one's growth inhibition.
1. O=Cc1c(O)ccc2ccccc12.[Cu+2]
2. Cc1ccccc1N1C(=O)c2ccccc2C1=O

1: 98.8; 2: 98.2
